Target: T1, 4H797-bH
T1 chain: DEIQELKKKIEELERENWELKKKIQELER
Assay: two-hybrid library CCNG1;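 also: natural log of median RNA to DNA barcode read ratio; higher means stronger binding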
endpoint: interaction score

Solved entries (count: 5):
> print(dat)
                                     binder           endpoint  readout.value
1  DEIQELEKEIEELKRKIWELKKKNQELKR [4H112-bH]  interaction score         -0.295
2  DEIQELEKKNEELKREIWELEKKIQELKR [4H454-bH]  interaction score         -0.829
3  DKNQELKKKNEELKRKIWELKKEIQELER [4H4073-bH]  interaction score         -0.554
4  DKNQELKKEIEELERENWELEKKIQELKR [4H3606-bH]  interaction score        -0.0905
5  DEIQELEKKNEELKREIWELKKEIQELER [4H457-bH]  interaction score         -0.848

(1) DKIQELKKEIEELEREIWELKKKNQELKR [4H2576-bH]
(2) DEIQELKKKIEELERENWELKKKIQELER [4H797-bH]
Between 1 and 2 , whose recorded interaction score is greater? Write down the label of the entry you select.
2
